Record form. Attribute: IC50. Fill in for each entry.
# tested system: Glutaminase kidney isoform, mitochondrial (Homo sapiens)
# Sequence (O94925 whole entry, the tested form may be a part, canonical isoform): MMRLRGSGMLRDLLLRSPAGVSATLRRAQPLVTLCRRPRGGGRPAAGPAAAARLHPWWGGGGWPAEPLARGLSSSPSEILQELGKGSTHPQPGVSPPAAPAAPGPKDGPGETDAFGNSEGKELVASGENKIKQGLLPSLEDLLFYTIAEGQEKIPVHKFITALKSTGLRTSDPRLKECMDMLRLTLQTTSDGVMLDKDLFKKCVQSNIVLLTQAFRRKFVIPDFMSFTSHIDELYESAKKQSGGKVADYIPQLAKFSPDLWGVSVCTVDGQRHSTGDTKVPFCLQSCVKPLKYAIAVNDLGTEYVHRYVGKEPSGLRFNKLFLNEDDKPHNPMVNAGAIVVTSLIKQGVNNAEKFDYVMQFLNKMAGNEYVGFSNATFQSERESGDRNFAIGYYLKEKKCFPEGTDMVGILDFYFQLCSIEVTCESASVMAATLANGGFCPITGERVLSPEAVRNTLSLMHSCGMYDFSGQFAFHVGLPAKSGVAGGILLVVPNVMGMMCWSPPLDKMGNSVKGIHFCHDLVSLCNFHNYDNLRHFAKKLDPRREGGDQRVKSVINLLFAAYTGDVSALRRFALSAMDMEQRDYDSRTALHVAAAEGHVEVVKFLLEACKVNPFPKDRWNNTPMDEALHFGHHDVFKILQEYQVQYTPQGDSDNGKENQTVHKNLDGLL
# assay: Inhibition of human kidney type glutaminase (124 to 669 residues) using L-[3H]-glutamine as substrate after 45 mins by topcount method

Some entries whose results are on file:
structure as smiles	endpoint result
CC(=O)Oc1ccc(CC(=O)Nc2nnc(CCCCc3nnc(NC(=O)Cc4ccc(OC(C)=O)cc4)s3)s2)cc1	1.2 µM
O=C(Cc1ccc(O)cc1)Nc1nnc(CCCCc2nnc(NC(=O)Cc3ccc(O)cc3)s2)s1	0.12 µM
O=C(Cc1ccccc1)Nc1nnc(CCCCc2nnc(NC(=O)Cc3ccc(OCc4ccccc4)cc3)s2)s1	> 25 µM

Next molecule, please.
Report measured IC50 on Glutaminase kidney isoform, mitochondrial (Homo sapiens); entry: CN(C)c1ccc(CC(=O)Nc2nnc(CCCCc3nnc(NC(=O)Cc4ccccc4)s3)s2)cc1 3 µM
